Parameter fold increase vs WT: see the listing below.
biological target: T1, FcγRIIIA (form not stated) (UniProt P08637 17-208, limits assumed); assay: ELISA
T1 construct: also called FcγRIIIA (ELISA)
T1 sequence (P08637 17-208 F176V limits assumed, form in doubt): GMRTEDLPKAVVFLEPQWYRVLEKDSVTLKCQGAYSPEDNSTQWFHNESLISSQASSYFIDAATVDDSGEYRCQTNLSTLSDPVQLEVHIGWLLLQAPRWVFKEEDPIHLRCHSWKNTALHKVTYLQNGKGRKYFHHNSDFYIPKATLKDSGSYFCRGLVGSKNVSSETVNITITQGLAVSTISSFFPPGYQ
Number first, unit second.

Sample answers from the record:
>>> observed_measurement("ch4-4-20 A231V, Q386H, V412M (antibody) heavy: ASTKGPSVFPLAPSSKSTSGGTAALGCLVKDYFPEPVTVSWNSGALTSGVHTFPAVLQSSGLYSLSSVVTVPSSSLGTQTYICNVNHKPSNTKVDKKVEPKSCDKTHTCPPCPVPELLGGPSVFLFPPKPKDTLMISRTPEVTCVVVDVSHEDPEVKFNWYVDGVEVHNAKTKPREEQYNSTYRVVSVLTVLHQDWLNGKEYKCKVSNKALPAPIEKTISKAKGQPREPQVYTLPPSRDELTKNQVSLTCLVKGFYPSDIAVEWESNGHPENNYKTTPPVLDSDGSFFLYSKLTMDKSRWQQGNVFSCSVMHEALHNHYTQKSLSLSPGK")
"1.5 x"
>>> observed_measurement("ch4-4-20 N315I, V379M, T394M (antibody) heavy: ASTKGPSVFPLAPSSKSTSGGTAALGCLVKDYFPEPVTVSWNSGALTSGVHTFPAVLQSSGLYSLSSVVTVPSSSLGTQTYICNVNHKPSNTKVDKKVEPKSCDKTHTCPPCPAPELLGGPSVFLFPPKPKDTLMISRTPEVTCVVVDVSHEDPEVKFNWYVDGVEVHNAKTKPREEQYNSTYRVVSVLTVLHQDWLIGKEYKCKVSNKALPAPIEKTISKAKGQPREPQVYTLPPSRDELTKNQVSLTCLVKGFYPSDIAMEWESNGQPENNYKTMPPVLDSDGSFFLYSKLTVDKSRWQQGNVFSCSVMHEALHNHYTQKSLSLSPGK")
"1 x"
>>> observed_measurement("ch4-4-20 V273I, K326E, L328I, P396L (antibody) heavy: ASTKGPSVFPLAPSSKSTSGGTAALGCLVKDYFPEPVTVSWNSGALTSGVHTFPAVLQSSGLYSLSSVVTVPSSSLGTQTYICNVNHKPSNTKVDKKVEPKSCDKTHTCPPCPAPELLGGPSVFLFPPKPKDTLMISRTPEVTCVVVDVSHEDPEIKFNWYVDGVEVHNAKTKPREEQYNSTYRVVSVLTVLHQDWLNGKEYKCKVSNEAIPAPIEKTISKAKGQPREPQVYTLPPSRDELTKNQVSLTCLVKGFYPSDIAVEWESNGQPENNYKTTPLVLDSDGSFFLYSKLTVDKSRWQQGNVFSCSVMHEALHNHYTQKSLSLSPGK")
"1.3 x"

Consider now this further binder.
// sample ch4-4-20 K326Q, K334E, T359N, T366S (antibody) heavy: ASTKGPSVFPLAPSSKSTSGGTAALGCLVKDYFPEPVTVSWNSGALTSGVHTFPAVLQSSGLYSLSSVVTVPSSSLGTQTYICNVNHKPSNTKVDKKVEPKSCDKTHTCPPCPAPELLGGPSVFLFPPKPKDTLMISRTPEVTCVVVDVSHEDPEVKFNWYVDGVEVHNAKTKPREEQYNSTYRVVSVLTVLHQDWLNGKEYKCKVSNQALPAPIEETISKAKGQPREPQVYTLPPSRDELNKNQVSLSCLVKGFYPSDIAVEWESNGQPENNYKTTPPVLDSDGSFFLYSKLTVDKSRWQQGNVFSCSVMHEALHNHYTQKSLSLSPGK , its fold increase vs WT was 1.5 x

Source: patent US20080112961A1
